- Target of assay: NMDA receptor
- Assay: [3H] MK-801 binding test on rat brain membrane specimen
Counter-ions that a name gives are not always drawn.

{"columns": ["Molecule", "Display unit", "Ki"],
 "data": [
  ["CC[C@]12CCCN[C@H]1c1cc(COC)ccc1C2 (racemic) [Example 73, hydrochloride]", "nM", 7100],
  ["CC[C@]12CCCN[C@H]1c1ccccc1C2 (racemic) [Example 1, hydrochloride]", "nM", 900],
  ["C[C@]12CCCN[C@@]1(C)c1ccccc1C2 (racemic) [Example 63, hydrochloride]", "nM", 800]
]}

====

- Target of assay: NMDA receptor
pKi: −log10 of the molar value. Counter-ions that a name gives are not always drawn.

{"columns": ["Molecule", "Target of assay", "pKi"],
 "data": [
  ["c1ccc([C@@H]2c3ccccc3[C@@H]3NCCC[C@H]23)cc1 (racemic) [Compound B, reference compound]", "NMDA receptor", 4.64],
  ["Cc1cc2c(s1)C[C@]1(C)CCCN[C@H]21", "NMDA receptor", 5.07],
  ["C[C@@]12CCCN[C@@H]1c1ccccc1CC2", "NMDA receptor", 5.70],
  ["c1ccc2c(c1)C[C@H]1CCCN[C@@H]21 (racemic) [Compound A, reference compound]", "NMDA receptor", 4.42],
  ["CC(C)[C@]12CCCN[C@@H]1c1ccccc1C2", "NMDA receptor", 5.17],
  ["COC[C@]12CCCN[C@@]1(C)c1ccccc1C2", "NMDA receptor", 6.22],
  ["C[C@@]12CCCN[C@@H]1c1ccccc1C2 [Example 82, hydrochloride]", "NMDA receptor", 5.17],
  ["c1ccc([C@@H]2c3ccccc3[C@@H]3NCCC[C@H]23)cc1 (racemic) [Compound C, reference compound]", "NMDA receptor", 4.70],
  ["CN1CCC[C@]2(C)Cc3ccccc3[C@H]12 (racemic) [Example 42, methanesulfonate]", "NMDA receptor", 5.89]
]}
